Protocol Summary: Toxicity to uninfected BALB/c mice
Format: in vivo
Measurement Context: mouse, in vivo; 200 mg/kg/day, once daily for 15 days; read-out: Survivors (%)
Result Type: survival
Units required after the number.

# input compound: Nc1ncc2ncn(CO[C@@H](CO)CCP(=O)(O)O)c2n1 [Compound 1-5] ; wanted: its survival
100%
